study-system: Neuraminidase (Influenza A virus)
Sequence (B4URF0 whole entry): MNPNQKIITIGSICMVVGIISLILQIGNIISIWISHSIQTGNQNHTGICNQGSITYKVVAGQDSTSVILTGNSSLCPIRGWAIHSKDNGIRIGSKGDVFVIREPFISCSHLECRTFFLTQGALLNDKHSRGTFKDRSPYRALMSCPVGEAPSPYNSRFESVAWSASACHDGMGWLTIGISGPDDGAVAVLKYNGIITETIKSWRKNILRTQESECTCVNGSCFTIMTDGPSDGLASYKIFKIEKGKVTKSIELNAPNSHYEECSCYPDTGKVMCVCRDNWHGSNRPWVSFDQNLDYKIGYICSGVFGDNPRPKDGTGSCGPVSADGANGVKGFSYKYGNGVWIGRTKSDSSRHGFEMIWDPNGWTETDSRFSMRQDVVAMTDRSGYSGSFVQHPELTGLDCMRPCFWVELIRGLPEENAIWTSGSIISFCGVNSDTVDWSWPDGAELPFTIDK
measurement-protocol: Inhibition of Influenza A virus A/Hong Kong/8/1968 (H3N2) neuraminidase using MUNANA as substrate preincubated for 30 mins measured after 2 hrs
pIC50: −log10 of the molar value.
value-type: pIC50

compound	value-type	value-measured
CC(=O)N[C@H]1[C@H]([C@H](O)[C@H](O)CO)OC(SCCCCCCSC2(C(=O)O)C[C@H](N)[C@@H](NC(C)=O)[C@H]([C@H](O)[C@H](O)CO)O2)(C(=O)O)C[C@@H]1N (stereo partly drawn)	pIC50	4.94
CC(=O)N[C@H]1[C@H]([C@H](O)[C@H](O)CO)OC(SCCOCCOCCOCCOCCSC2(C(=O)O)C[C@H](NC(=N)N)[C@@H](NC(C)=O)[C@H]([C@H](O)[C@H](O)CO)O2)(C(=O)O)C[C@@H]1NC(=N)N (stereo partly drawn)	pIC50	6.00
CC(=O)N[C@H]1[C@H]([C@H](O)[C@H](O)CO)OC(SCCOCCOCCOCCSC2(C(=O)O)C[C@H](NC(=N)N)[C@@H](NC(C)=O)[C@H]([C@H](O)[C@H](O)CO)O2)(C(=O)O)C[C@@H]1NC(=N)N (stereo partly drawn)	pIC50	5.75
CC(=O)N[C@H]1[C@H]([C@H](O)[C@H](O)CO)OC(SCCCCCCS)(C(=O)O)C[C@@H]1NC(=N)N (stereo partly drawn)	pIC50	6.26
CC(=O)N[C@H]1[C@H]([C@H](O)[C@H](O)CO)OC(SCCCCCCCCCCCCSC2(C(=O)O)C[C@H](NC(=N)N)[C@@H](NC(C)=O)[C@H]([C@H](O)[C@H](O)CO)O2)(C(=O)O)C[C@@H]1NC(=N)N (stereo partly drawn)	pIC50	6.30
CC(=O)N[C@H]1[C@H]([C@H](O)[C@H](O)CO)OC(SCCCCCCCCCCCCSC2(C(=O)O)C[C@H](N)[C@@H](NC(C)=O)[C@H]([C@H](O)[C@H](O)CO)O2)(C(=O)O)C[C@@H]1N (stereo partly drawn)	pIC50	4.82
CC(=O)N[C@H]1[C@H]([C@H](O)[C@H](O)CO)OC(SCCCCCCS)(C(=O)O)C[C@@H]1N (stereo partly drawn)	pIC50	4.19
CC(=O)N[C@H]1[C@H]([C@H](O)[C@H](O)CO)OC(SCCOCCOCCOCCOCCSC2(C(=O)O)C[C@H](N)[C@@H](NC(C)=O)[C@H]([C@H](O)[C@H](O)CO)O2)(C(=O)O)C[C@@H]1N (stereo partly drawn)	pIC50	4.68

====

# IC50 values compiled below
Test system: Influenza A virus
measurement-protocol: Antiviral activity against Influenza A virus A/Hong Kong/8/1968 (H3N2) infected in MDCK cells assessed as reduction in virus plaque formation after 5 days
Assay type: functional, organism-based
assay-context: 120 h

compound	study-system	IC50 (µM)
CC(=O)N[C@H]1[C@H]([C@H](O)[C@H](O)CO)OC(SCCCCCCSC2(C(=O)O)C[C@H](NC(=N)N)[C@@H](NC(C)=O)[C@H]([C@H](O)[C@H](O)CO)O2)(C(=O)O)C[C@@H]1NC(=N)N (stereo partly drawn)	Influenza A virus	0.01
CC(=O)N[C@H]1[C@H]([C@H](O)[C@H](O)CO)OC(SCCCCCCCCCCCCSC2(C(=O)O)C[C@H](N)[C@@H](NC(C)=O)[C@H]([C@H](O)[C@H](O)CO)O2)(C(=O)O)C[C@@H]1N (stereo partly drawn)	Influenza A virus	1
CC(=O)N[C@H]1[C@H]([C@H](O)[C@H](O)CO)OC(SCCOCCOCCOCCSC2(C(=O)O)C[C@H](N)[C@@H](NC(C)=O)[C@H]([C@H](O)[C@H](O)CO)O2)(C(=O)O)C[C@@H]1N (stereo partly drawn)	Influenza A virus	1
